test system: SF-295 CNS; assay: NCI-60 one-dose screen, 48 h (100 = growth as untreated, 0 = no growth, -100 = all killed); conditions: 10 µM unless noted
About 83,000 compounds went through this panel and 20% of them were active in at least one assay; those are over-represented in the sample as a whole.
observable: growth (%)

compound=CCCCCCNC(=O)Oc1ccc(/C(=C(/C)c2ccc(OC)cc2)c2ccc(OCCN3CCCC3)cc2)cc1 measurement_target="SF-295 CNS" val=46.8
compound=C#C[C@]1(O)CC[C@H]2[C@@H]3CC=C4c5sc(Nc6nc(C)cc(OC)n6)nc5CC[C@]4(C)[C@H]3CC[C@@]21C measurement_target="SF-295 CNS" val=-60
compound=C#C[C@]1(O)CC[C@H]2[C@@H]3CC=C4c5sc(Nc6cccc(Cl)n6)nc5CC[C@]4(C)[C@H]3CC[C@@]21C measurement_target="SF-295 CNS" val=-70.2
compound=COc1ccc(NC2=C(Cl)C(=O)C(C)=C(C)C2=O)cc1 measurement_target="SF-295 CNS" val=100
compound="COC[C@@]1(C)CC[C@]2(C)CC[C@]3(C)C(=CC[C@@H]4[C@@]5(C)CCCNC(C)(C)[C@@H]5CC[C@]43C)C2C1 (some centres undefined)" measurement_target="SF-295 CNS" val=3.52
compound=COc1cnc2c(c1)C(=O)c1c-2n(CCCNCC2CC2)c(=O)c2cc(F)ccc12 measurement_target="SF-295 CNS" val=-7.51
compound=O=C1Nc2ccc(Br)cc2/C1=N\c1nnc(-c2ccc(Cl)cc2)o1 measurement_target="SF-295 CNS" val=75.1
compound=C=CCn1c(SCC(=O)Nc2cccc(C(=O)/C=C/c3ccc(Cl)cc3)c2)nc2ccccc2c1=O measurement_target="SF-295 CNS" val=94.7
compound=COC1=C(c2ccccc2)C(=O)C(OC)=C(c2ccccc2)C1=O measurement_target="SF-295 CNS" val=100

---

system: ACHN renal; assay: NCI-60 one-dose screen, 48 h (100 = growth as untreated, 0 = no growth, -100 = all killed); conditions: 10 µM unless noted
Compounds without any hit were thinned out: in the full panel of roughly 83,000, 20% have a hit.
observable: growth (%)

molecule="CS(=O)c1nccc(-c2c(-c3ccc(F)c(OCc4ccc(F)cc4)c3)nc3sccn23)n1 (centres undefined)" observable=growth val=77.2
molecule=C/C(=N\NC(=S)Nc1ccc(Br)cc1)c1cc2ccccc2oc1=O observable=growth val=14.9
molecule=CCOC(=O)c1c(NCC(=O)Nc2cccc(Cl)c2)sc2c1CCCC2 observable=growth val=88.7
molecule=COc1ccc([C@H]2[C@H](O)C(=O)N2c2cc(OC)c(OC)c(OC)c2)cc1 observable=growth val=26.8
molecule="Cn1c(SC(C(=O)Nc2ccc(F)cc2)c2ccccc2)nc2ccccc2c1=O (centres undefined)" observable=growth val=109
molecule=O=C1NC(=O)/C(=C/c2ccc(OCc3cc4ccccc4nc3Cl)cc2)S1 observable=growth val=92.8
molecule=COc1ccc(N2CCN(C(=O)CSc3ccc(-c4nc5cc(C)c(C)cc5[nH]4)cn3)CC2)cc1 observable=growth val=77.5
molecule=COc1ccc(OC)c(NC2=C(Cl)C(=O)C(C)=C(C)C2=O)c1 observable=growth val=100
molecule=O=C1C[C@@H](c2ccccc2)Oc2c(Cc3ccccc3O)c(O)c(Cc3cc(Cc4cc(Cc5ccccc5O)ccc4O)ccc3O)c(O)c21 observable=growth val=94.4

---

system: SK-MEL-28 melanoma; assay: NCI-60 one-dose screen, 48 h; details: 10 µM unless noted
About 83,000 compounds went through this panel and 20% of them were active in at least one assay; those are over-represented in the sample as a whole. Calls of active or inactive are those of the source. The calls were made as follows: active = growth percent below 10; inactive = the rest.
Outcome codes: Y (active), N (inactive)

molecule=Cc1cc(C(=O)Nc2ccc(SC#N)cc2)c(C)o1 cat=N
molecule=COc1cnc2c(c1)C(=O)c1c-2n(CCCNCC2CC2)c(=O)c2cc(F)ccc12 cat=N
molecule=Cc1ccc(NC(=O)c2ccc(CN3CCN(C)CC3)c(C(F)(F)F)c2)cc1Oc1ccc(-c2[nH]nc3ncnc(N)c23)cc1 cat=N
molecule=Cn1cc(-c2nn3cc(-c4ccncc4)nc3s2)c2cc(Cl)ccc21 cat=N
molecule=O=C(Nc1cc(Cl)cc(Cl)c1)Nc1nc2ccc([N+](=O)[O-])cc2s1 cat=Y
molecule=CCCCCCNC(=O)Oc1ccc(/C(=C(/C)c2ccc(OC)cc2)c2ccc(OCCN3CCCC3)cc2)cc1 cat=N
molecule=CC[C@H](C)[C@H]1NC(=O)[C@@H]([C@H](O)C(C)C)NC(=O)[C@@H](C)N(C)C(=O)[C@H](C)N(C)C(=O)[C@H](CC(C)C)NC(=O)[C@H](CC(C)C)N(C)C(=O)[C@H](C)N(C)C1=O cat=Y
molecule=O=C(NNc1nc2cc(F)cc(F)c2n2cccc12)c1ncccn1 cat=N
molecule="C#CCOc1ccc(C(Nc2cc(Cl)ccc2Cl)c2nnnn2C2CCCCC2)cc1 (configuration not stated)" cat=N
molecule=Cc1cc(O)c2c(c1)C(=O)C(c1c(C)cc3c(c1O)C(=O)C=CC3=O)=CC2=O cat=N
molecule=CS(=O)(=O)c1nccc(-c2c(-c3ccc(F)c(OCc4ccccc4)c3)nc3sccn23)n1 cat=N
molecule=C=CCn1c(SCC(=O)Nc2cccc(C(=O)/C=C/c3cccc([N+](=O)[O-])c3)c2)nc2ccccc2c1=O cat=N
molecule="O=C(COc1ccc(C2SCC(=O)N2c2ccccc2)cc1)c1ccccc1 (configuration not stated)" cat=N
molecule=COc1cc2c3c(n(CCCN4CCCC4)c(=O)c2cc1OC)-c1cc2c(cc1C3=O)OCO2 cat=Y
molecule=CCNC(=O)Oc1ccc(/C(=C(/C)c2ccc(Cl)cc2)c2ccc(OCCN(C)C)cc2)cc1 cat=N
molecule=Nc1nc(-c2cccc([N+](=O)[O-])c2)c(N=Nc2cccc(Cl)c2)s1 cat=N
molecule=C=CCn1c(SCC(=O)Nc2cccc(C(=O)/C=C/c3ccc(OC)c(OC)c3)c2)nc2ccccc2c1=O cat=N
molecule=COc1ccc(N2CCN(C(=O)CSc3ccc(-c4nc5cc(C)c(C)cc5[nH]4)cn3)CC2)cc1 cat=N
molecule=COc1ccc([C@@H]2[C@@H](O)C(=O)N2c2cc(OC)c(OC)c(OC)c2)cc1Cl cat=N
molecule=Cc1[nH]nc2ccc(-c3nc4cnc(N5CCN(C)CC5)cn4c3Nc3ccc(F)cc3Br)cc12 cat=N
molecule=O=c1[nH]c(CCl)nc2c1cnn2-c1ccccc1 cat=N
molecule=CC(=O)NC(C)(C)C(=O)N1CCC[C@H]1C(=O)NC(C)(C)C(=O)N[C@@H](C)C(=O)NC(C)(C)C(=O)N[C@@H](C)C(=O)N[C@@H](CCC(N)=O)C(=O)NC(C)(C)C(=O)N[C@H](C(=O)NC(C)(C)C(=O)NCC(=O)N[C@@H](CC(C)C)C(=O)NC(C)(C)C(=O)N1CCC[C@H]1C(=O)N[C@H](C(=O)NC(C)(C)C(=O)NC(C)(C)C(=O)N[C@@H](CCC(N)=O)C(=O)N[C@@H](CCC(N)=O)C(=O)N[C@H](CO)Cc1ccccc1)C(C)C)C(C)C cat=N
molecule=CN1CCN(Cc2ccc(NC(=O)c3cncc(C#Cc4cnc5ccc(NC6CCOCC6)nn45)c3)cc2C(F)(F)F)CC1 cat=Y
molecule=CCOC(=O)c1c(NC(=O)c2cccc(C(F)(F)F)c2)sc2c(CN3CCN(C)CC3)c(O)ccc12 cat=Y
molecule=COc1ccc(-c2nnc(SCc3ccc(O)c4ncccc34)o2)cc1 cat=N
molecule="Cc1cccc(NC(c2cc3cccc4ccc5cccc2c5c43)c2nnnn2C(C)(C)C)c1C (configuration not stated)" cat=N
molecule="Cc1ccc(NC(=O)N[C@@H](Cc2cc(F)cc(F)c2)C(=O)NC2C(=O)N3CCC[C@H]3C(=O)N3CCCC[C@H]3C(=O)N[C@@H](C)C(=O)N3C[C@H](C)C[C@H]3C(=O)O[C@H]2C)c(F)c1 (some centres not stated)" cat=N
molecule=COc1ccc(Cn2cc3c(c2-c2cc(OC)c(OC)c(OC)c2)CCCc2cnoc2-3)cc1N cat=N
molecule=COc1ccc(-c2cc(-c3ccc(Cl)cc3)nc3nc(N)nn23)cc1 cat=N
molecule=COc1cnc2c(c1)C(=O)c1c-2n(CCCn2ccnc2)c(=O)c2cc(OC)c(OC)cc12 cat=N
molecule=O=C1C[C@@H](c2ccccc2)Oc2c(Cc3ccccc3O)c(O)c(Cc3cc(Cc4cc(Cc5ccccc5O)ccc4O)ccc3O)c(O)c21 cat=N
molecule=C/C(=N/Nc1nc(N/N=C(/C)c2ccc([N+](=O)[O-])cc2)nc(N2CCOCC2)n1)c1ccc([N+](=O)[O-])cc1 cat=N

---

We begin with a simple list: items and their reported growth.
system: NCI-H522 lung; experiment: NCI-60 one-dose screen, 48 h (100 = growth as untreated, 0 = no growth, -100 = all killed); details: 10 µM unless noted
About 83,000 compounds went through this panel and 20% of them were active in at least one assay; those are over-represented in the sample as a whole. Active and inactive are the calls of the source. How the source made its calls: active means growth percent below 10; inactive means the rest.
observable: growth

compound=O=C(O)CNS(=O)(=O)c1ccc(Oc2ccc(S(=O)(=O)NCC(=O)O)cc2)cc1 val="94.7% (inactive)"
compound=C#C[C@]1(O)CC[C@H]2[C@@H]3CC=C4c5sc(Nc6cccc(Cl)n6)nc5CC[C@]4(C)[C@H]3CC[C@@]21C val="-17.7% (active)"
compound="Nc1nc(N)c2c(n1)NC(c1ccc(Cl)cc1)CC(c1ccc(Nc3nc(NCCO)nc(Nc4ccc(Cl)cc4)n3)cc1)=N2 (centres undefined)" val="25.2% (inactive)"
compound="CC(c1ccccc1)N1C(=O)/C(=C/c2csc(C#N)n2)SC1=S (centres undefined)" val="75.4% (inactive)"
